- procedure summary: Uptake and clearance of TCAP-1 in plasma after IV or SC injection (TCAP ELISA)
- Assay type: in vivo, rat
- applied conditions: rat, in vivo, sc, highest dose; read-out: clearance time (plasma clearance half-life)
Ends that are not written are not given here.
readout label: half-life (min)
Numbers only here, please. The scale is min.

Query: half-life; subject: QQLLGTGRVQGYDGYFVLSVEQYLELSDSANNIHFMRQSEI-NH2 (C-terminus assumed) [TCAP-1]
36

====

- procedure summary: Uptake and clearance of TCAP-1 in plasma after IV or SC injection (TCAP ELISA)
- Assay type: in vivo, rat
- applied conditions: rat, in vivo, iv, mid dose; read-out: plasma clearance half-life
- Experimental: Male Wistar rats weighing 400-450 g were obtained from Charles River Laboratories (Montreal, Canada). Rats were singly-housed in standard Plexiglas shoebox cages under standard laboratory conditions, (12 h light:dark cycle, lights on at 0700) with food and water available ad libitum. Testing took place between 0900 and 1200 hours. Rats were given one week to acclimatize to the laboratory before surgery. […]
Ends that are not written are not given here.
readout label: half-life (min)
Entry rule: numbers only, all in min.

Record request: half-life value, item QQLLGTGRVQGYDGYFVLSVEQYLELSDSANNIHFMRQSEI-NH2 (C-terminus assumed) [TCAP-1]
7
